test system: chloroquine-sensitive P. falciparum (NF54); test: Antimalarial activity in vitro, [3H]hypoxanthine incorporation; type: cell-based
observed property: IC50

Answered cases to consult:
molecule	IC50
CC1CCC2C(C)C(CC(CC3OC4OC5(C)CCC6C(C)CCC(C3C)C46OO5)OC(=O)c3ccc[n+]([O-])c3)OC3OC4(C)CCC1C32OO4 (centres unmarked)	sub-nanomolar
CC1CCC2C(C)C(CC(CO)CC3OC4OC5(C)CCC6C(C)CCC(C3C)C46OO5)OC3OC4(C)CCC1C32OO4 (centres unmarked)	below one nM
COP(=O)(OC)OCC(CC1OC2OC3(C)CCC4C(C)CCC(C1C)C24OO3)CC1OC2OC3(C)CCC4C(C)CCC(C1C)C24OO3 (centres unmarked)	sub-nanomolar
CC1CCC2C(C)C(CC(COC(=O)c3ccc[n+]([O-])c3)CC3OC4OC5(C)CCC6C(C)CCC(C3C)C46OO5)OC3OC4(C)CCC1C32OO4 (centres unmarked)	sub-nanomolar
CC1CCC2C(C)C(CC(O)(COC(=O)c3cc[n+]([O-])cc3)CC3OC4OC5(C)CCC6C(C)CCC(C3C)C46OO5)OC3OC4(C)CCC1C32OO4 (centres unmarked)	sub-nanomolar
C[C@@H]1CC[C@H]2[C@@H](C)C(CC(=O)CC3OC4O[C@]5(C)CC[C@H]6[C@H](C)CC[C@@H]([C@H]3C)C46OO5)OC3O[C@]4(C)CCC1C32OO4 (some centres unmarked)	below one nM
CC1CCC2C(C)C(CC(O)CC3OC4OC5(C)CCC6C(C)CCC(C3C)C46OO5)OC3OC4(C)CCC1C32OO4 (centres unmarked)	below one nM
CC1CCC2C(C)C(CC(COC(=O)c3cc[n+]([O-])cc3)CC3OC4OC5(C)CCC6C(C)CCC(C3C)C46OO5)OC3OC4(C)CCC1C32OO4 (centres unmarked)	sub-nanomolar
CC1CCC2C(C)C(CC(O)(CO)CC3OC4OC5(C)CCC6C(C)CCC(C3C)C46OO5)OC3OC4(C)CCC1C32OO4 (centres unmarked)	below one nM
CC1CCC2C(C)C(CC(CC3OC4OC5(C)CCC6C(C)CCC(C3C)C46OO5)OC(=O)c3cc[n+]([O-])cc3)OC3OC4(C)CCC1C32OO4 (centres unmarked)	sub-nanomolar

Challenge: Tell me the measured IC50 of CCOP(=O)(OCC)OCC(CC1OC2OC3(C)CCC4C(C)CCC(C1C)C24OO3)CC1OC2OC3(C)CCC4C(C)CCC(C1C)C24OO3 (centres unmarked) , please.
Response given: sub-nanomolar
